- Method Summary: chemical genetic growth profiling, strain panel (AID 1159580);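 note: tested at 20 µM; growth read once vehicle control cultures reached saturation at 30 °C; lower values mean less growth of the strain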
- Assay Conditions: S. cerevisiae deletion strains, growth OD, locus YBR023C, strain chs3
The campaign covered roughly 5,500 compounds. About 2,000 (36%) were called active. Not shown: some 18% with an inconclusive outcome. Cut-off read from the data, not from the text of the source: active = normalized growth mostly below about 0.91 (no sharp cut-off); inconclusive = no clear call, values can overlap the other calls; inactive = mostly above about 0.92. This is one part of the list. Where a SMILES comes first, the peptide text is derived from it. Bridges are numbered along the chain shown (N, C = ends). [ ]: non-standard residue; d: D form. The star is where a group is joined. ξ: configuration not given here. ξDab(CH2SO3H) = NC(CCNCS(=O)(=O)O)C(=O)O; Heptanoyl(6-Me) = CC(C)CCCCC(=O)*; Dab = NCC[CH](N)C(=O)O
Lab note: assign the record to one of active, inactive

IN: Status in this test for Clc1ccccc1C(c1ccccc1)(c1ccccc1)n1ccnc1 ?
OUT: active

IN: Status in this test for Cc1ccc(-c2cc(C(F)(F)F)nn2-c2ccc(S(N)(=O)=O)cc2)cc1 ?
OUT: inactive

IN: Status in this test for CCC(C)C(=O)O[C@H]1[C@H](O)C2C(CN3CC(C)CCC3[C@@]2(C)O)C2C[C@]34O[C@]5(O)C(OC(=O)C(C)(O)CC)CC[C@@]3(C)C5C(OC(C)=O)[C@@H](OC(C)=O)C4[C@@]21O (some centres undefined) ?
OUT: inactive

IN: Status in this test for COC(=O)Nc1nc2ccc(S(=O)c3ccccc3)cc2[nH]1 (centres undefined) ?
OUT: inactive

IN: Status in this test for Nc1ccccc1C(=O)CC(N)C(=O)O (centres undefined) ?
OUT: inactive

IN: Status in this test for CC(C)(Oc1ccc(CCNC(=O)c2ccc(Cl)cc2)cc1)C(=O)O ?
OUT: inactive

IN: Status in this test for O=C(O)CC(O)(CC(=O)O)C(=O)O ?
OUT: inactive

IN: Status in this test for CCCCCCCCCCCCCCC(C(=O)O)C(O)(CC(=O)OC)C(=O)O (centres undefined) ?
OUT: inactive

IN: Status in this test for O=c1oc2cc(O)ccc2s1 ?
OUT: inactive

IN: Status in this test for CNC(=O)O/N=C\C(C)(C)SC ?
OUT: inactive

IN: Status in this test for COc1ccc2c(c1)c(CC(=O)O)c(C)n2C(=O)c1ccc(Cl)cc1 ?
OUT: inactive

IN: Status in this test for CCC(C)C(NC)C(=O)O (centres undefined) ?
OUT: inactive

IN: Status in this test for COc1ccc2c(c1)c(CC(=O)OCC(=O)O)c(C)n2C(=O)c1ccc(Cl)cc1 ?
OUT: inactive

IN: Status in this test for COC(=O)Nc1nc2ccc(Sc3ccccc3)cc2[nH]1 ?
OUT: inactive

IN: Status in this test for CC1(C)CC[C@]2(C(=O)O)CC[C@]3(C)C(=CCC4[C@@]5(C)CC[C@@H](O)C(C)(C)C5CC[C@]43C)C2C1 (some centres undefined) ?
OUT: inactive

IN: Status in this test for NNC(=O)c1ccncc1 ?
OUT: inactive

IN: Status in this test for CCC(C)C1NC(=O)C(CCNCS(=O)(=O)O)NC(=O)C(NC(=O)C(CCNCS(=O)(=O)O)NC(=O)C(NC(=O)C(CCNCS(=O)(=O)O)NC(=O)CCCCC(C)C)C(C)O)CCNC(=O)C(C(C)O)NC(=O)C(CCNCS(=O)(=O)O)NC(=O)C(CCNCS(=O)(=O)O)NC(=O)C(C(C)CC)NC1=O (centres undefined) ({Heptanoyl(6-Me)}-[ξDab(CH2SO3H)]T[ξDab(CH2SO3H)][Dab][ξDab(CH2SO3H)]II[ξDab(CH2SO3H)][ξDab(CH2SO3H)]T; lactam 4-C; configuration not given here) ?
OUT: inactive

IN: Status in this test for O=c1ccc2ccc(O)cc2o1 ?
OUT: inactive

IN: Status in this test for FC(F)(F)c1ccccc1-n1ccnc1 ?
OUT: inactive

Origin of measurements: PubChem BioAssay AID1159580
